target: T1, SARS-CoV-2 S1 (aa16-685) (Wuhan) (SARS-CoV-2 Wuhan, UniProt P0DTC2 16-685); experiment: ELISA, coated antigen, apparent EC50
T1 construct: NRC; FLAG, 6xHis tags
Items are presented alongside their recorded EC50.
Express your answer in pM, writing the number without its unit.

Query block: Bench note: what EC50 did NRCoV2-MRed03 VHH-Fc (Fc fusion, bivalent) EVQLVESGGGLVQPGGSLRLSCAAIGFTLDYYAIGWFRQAPGKEREGVSCISSSDGSTYYADSVKGRFTISRDNAKNTVYLQMNSLKPEDTAVYYCATDAFATCDSWYAQIAQYDFRGQGTQVTVSS show?
Result block: 480

Moving on to another binder below.
Query block: Bench note: what EC50 did NRCoV2-SR13 VHH-Fc (Fc fusion, bivalent) EVQLVESGGGLVTTGGSLRLSCATSGSRFGSKHMAWYRQAPGKQRDLVAAISSGGSTHYGSSVKGRFTISRDNAKSTVYLQMNSLNPEDTAVFYCNMGGWDYRSNTYIPGSRSDYWGQGTQVTVSS show?
Result block: 430
